Test: recombinant UMI read abundance after kanamycin selection (control-corrected) (log10(CPM+1)); higher = more efficient recombination; extreme values may be limits of the assay; sequences stand for … in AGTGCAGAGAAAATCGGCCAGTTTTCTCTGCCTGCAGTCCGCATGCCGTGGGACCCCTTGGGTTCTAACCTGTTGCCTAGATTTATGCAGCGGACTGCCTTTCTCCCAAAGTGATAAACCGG…AGGTTGGTTTCACT; site = the 11-nt donor;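 also: IS621 bridge recombinase in Escherichia coli cells against a fixed T5 target plasmid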
Could you label it Satisfied if measured recombinant UMI read abundance (log10) is 0.008 or higher, and Not satisfied otherwise?

- SEQUENCE ENTRY: "CCCCACCCATGGACCGGTTTTCCCGGTAATCCGTATTTGTA (site CCCCACCCTTA)"
  CATEGORY: "Satisfied"
- SEQUENCE ENTRY: "TAGGCAACATGGACCGGTTTTCCCGGTAATCCGTATTTGCA (site TAGGCAACTTG)"
  CATEGORY: "Satisfied"
- SEQUENCE ENTRY: "AGCCTAGCATGGACCGGTTTTCCCGGTAATCCGTATTTGTT (site CGCCTAGCTAA)"
  CATEGORY: "Not satisfied"
- SEQUENCE ENTRY: "CGGATTTCATGGACCGGTTTTCCCGGTAATCCGTATTTGTT (site CGGATTTCTAA)"
  CATEGORY: "Satisfied"
- SEQUENCE ENTRY: "CGGAATCCATGGACCGGTTTTCCCGGTAATCCGTATTTGTC (site CGGAATCCTCA)"
  CATEGORY: "Not satisfied"
